Reference source: ChEMBL document CHEMBL2401691

test: Oral bioavailability in rat at 5 mg/kg
Type: ADME, organism-based
condition.description: in vivo
measurement.name: bioavailability
Write the numeric value and append its unit.

Note to self: bioavailability recorded for `C=C[C@@H]1C[C@]1(NC(=O)[C@@H]1C[C@@](OC)(c2ccc(-c3ccccc3)cc2)CN1C(=O)[C@@H](NC(=O)OC1CCCC1)C(C)(C)C)C(=O)NS(=O)(=O)C1CC1` was 33%

====

test: Half life in human liver microsomes
Assay type: ADME, Microsome
Please respond with fulfilled when measured half-life is strictly beneath 1 h, and with not fulfilled in all other cases.

A selection of reference data follows.
[[record]]
chemical_smiles = "C=C[C@@H]1C[C@]1(NC(=O)[C@@H]1C[C@@](OC)(c2ccc(-c3nccs3)nc2)CN1C(=O)[C@@H](NC(=O)OC1CCCC1)C(C)(C)C)C(=O)NS(=O)(=O)C1CC1"
label = "not fulfilled"

[[record]]
chemical_smiles = "C=C[C@@H]1C[C@]1(NC(=O)[C@@H]1C[C@@](OC)(c2ccc(-c3ccncc3)cc2)CN1C(=O)[C@@H](NC(=O)OC1CCCC1)C(C)(C)C)C(=O)NS(=O)(=O)C1CC1"
label = "not fulfilled"

[[record]]
chemical_smiles = "C=C[C@@H]1C[C@]1(NC(=O)[C@@H]1C[C@@](OC)(c2ccc(-c3ccccc3)nc2)CN1C(=O)[C@@H](NC(=O)OC1CCCC1)C(C)(C)C)C(=O)NS(=O)(=O)C1CC1"
label = "not fulfilled"

[[record]]
chemical_smiles = "C=C[C@@H]1C[C@]1(NC(=O)[C@@H]1C[C@@](OC)(c2ccc(-c3cccnc3)cc2)CN1C(=O)[C@@H](NC(=O)OC1CCCC1)C(C)(C)C)C(=O)NS(=O)(=O)C1CC1"
label = "fulfilled"


# input for lookup
// query Would you kindly verify if half-life of `C=C[C@@H]1C[C@]1(NC(=O)[C@@H]1C[C@@](OC)(c2ccc(-c3ccccc3)cc2)CN1C(=O)[C@@H](NC(=O)OC1CCCC1)C(C)(C)C)C(=O)NS(=O)(=O)C1CC1` is strictly less than 1 h?
// result not fulfilled
